Experiment: Solvent solubility study of ralinepag
Format: physicochemical
Conditions: organic solvent or mixture, thermodynamic from solid; solvent anisole; read-out: Estimated Solubility
measure_name: solubility
Remember to follow the number with its unit.

Ask: What value of solubility has been recorded for this entry: O=C(O)COC[C@H]1CC[C@H](COC(=O)N(c2ccccc2)c2ccc(Cl)cc2)CC1
Reply: 200 mg/mL

----------
Assay: Solvent solubility study of ralinepag
Type: physicochemical
Conditions: organic solvent or mixture, thermodynamic from solid; solvent methylethyl ketone; heated to 40° C.; read-out: Estimated Solubility
measure_name: solubility (mg/mL)
All answers are understood in mg/mL, so give the number only.

Ask: Would you mind telling me what solubility value was observed for O=C(O)COC[C@H]1CC[C@H](COC(=O)N(c2ccccc2)c2ccc(Cl)cc2)CC1 [ralinepag] ?
Reply: 200
